- measurementTarget: human Claudin-6 (CLDN6) (human) (UniProt P56747)
- testDetails: FACS, 0.3 ug Ab, 293T clone expressing human CLDN6 (2nd Ab only 768.07)
propertyMeasured: FACS fluorescence
Numbers only.

Here are 2 binders together with their reported answers.
AB3-4 (antibody, V domains shown, humanized) VH: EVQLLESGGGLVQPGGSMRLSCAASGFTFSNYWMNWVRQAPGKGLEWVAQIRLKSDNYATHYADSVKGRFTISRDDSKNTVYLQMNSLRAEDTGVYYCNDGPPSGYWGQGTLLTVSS VL: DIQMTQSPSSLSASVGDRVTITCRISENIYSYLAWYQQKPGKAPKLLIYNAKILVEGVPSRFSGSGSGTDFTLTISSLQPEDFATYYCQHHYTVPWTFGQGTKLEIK	11600
AB1-3 (antibody, V domains shown, humanized) VH: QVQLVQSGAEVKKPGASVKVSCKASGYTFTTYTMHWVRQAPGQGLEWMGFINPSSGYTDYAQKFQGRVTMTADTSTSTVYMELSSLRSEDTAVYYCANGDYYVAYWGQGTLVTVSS VL: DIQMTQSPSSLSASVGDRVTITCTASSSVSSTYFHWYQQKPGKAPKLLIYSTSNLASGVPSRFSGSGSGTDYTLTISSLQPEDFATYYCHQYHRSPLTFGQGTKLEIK	142000

Next binder, please.
Query: Record request: FACS fluorescence value, item AB18-4 (antibody, V domains shown) VH: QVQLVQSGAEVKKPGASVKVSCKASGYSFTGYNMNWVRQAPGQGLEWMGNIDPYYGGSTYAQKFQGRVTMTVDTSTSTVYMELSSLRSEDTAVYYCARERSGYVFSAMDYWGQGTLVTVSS VL: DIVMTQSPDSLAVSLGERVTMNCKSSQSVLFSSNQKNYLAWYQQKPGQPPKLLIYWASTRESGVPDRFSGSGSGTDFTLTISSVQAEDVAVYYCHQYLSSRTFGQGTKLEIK
Response: 32400
